Experimental Protocol: Drug concentration in C57BL/6 mouse brain at 1 mg/kg, po measured after 3 hrs
Assay type: ADME, organism-based
Assay Context: read-out: Ct
Test Readout: concentration at 3 h (nM)
Just the number please, in nM, no unit attached.

Given the entry "C[C@@H]1COCCN1c1cc(N2CCOC[C@@H]2C)nc2[nH]c(-c3cscn3)nc12" , report its measured concentration at 3 h.
240

---

Assayed System: Phosphatidylinositol 4,5-bisphosphate 3-kinase catalytic subunit gamma isoform (Homo sapiens)
Sequence (P48736 whole entry, canonical isoform): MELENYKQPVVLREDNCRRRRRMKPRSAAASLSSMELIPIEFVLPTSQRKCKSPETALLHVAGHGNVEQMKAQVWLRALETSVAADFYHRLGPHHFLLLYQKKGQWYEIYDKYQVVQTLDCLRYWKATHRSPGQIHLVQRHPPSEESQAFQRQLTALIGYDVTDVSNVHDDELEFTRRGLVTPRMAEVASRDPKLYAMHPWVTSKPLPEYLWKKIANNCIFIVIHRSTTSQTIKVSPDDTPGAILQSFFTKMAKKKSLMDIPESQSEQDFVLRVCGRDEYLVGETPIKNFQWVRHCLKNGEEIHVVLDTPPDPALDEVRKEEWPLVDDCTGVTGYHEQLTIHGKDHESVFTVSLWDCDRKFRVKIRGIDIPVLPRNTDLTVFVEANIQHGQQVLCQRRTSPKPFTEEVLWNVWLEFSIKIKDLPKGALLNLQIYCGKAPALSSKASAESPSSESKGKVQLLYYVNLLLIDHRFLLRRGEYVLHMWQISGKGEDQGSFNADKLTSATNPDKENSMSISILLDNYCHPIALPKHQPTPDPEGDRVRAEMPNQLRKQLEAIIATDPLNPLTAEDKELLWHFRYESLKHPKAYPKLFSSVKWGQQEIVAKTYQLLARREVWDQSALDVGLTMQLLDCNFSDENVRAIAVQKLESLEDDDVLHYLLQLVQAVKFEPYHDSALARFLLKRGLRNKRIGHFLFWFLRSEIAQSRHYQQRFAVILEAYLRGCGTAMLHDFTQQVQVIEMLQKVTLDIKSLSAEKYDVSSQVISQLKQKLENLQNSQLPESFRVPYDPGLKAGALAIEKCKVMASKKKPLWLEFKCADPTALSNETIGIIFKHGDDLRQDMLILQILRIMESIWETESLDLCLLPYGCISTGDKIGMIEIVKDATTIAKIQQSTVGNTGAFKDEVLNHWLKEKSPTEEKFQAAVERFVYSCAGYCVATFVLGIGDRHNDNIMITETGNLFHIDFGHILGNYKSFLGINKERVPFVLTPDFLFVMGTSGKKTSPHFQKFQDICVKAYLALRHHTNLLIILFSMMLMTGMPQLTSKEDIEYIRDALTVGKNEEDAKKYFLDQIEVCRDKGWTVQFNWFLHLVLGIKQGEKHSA
Experimental Protocol: Inhibition of PI3Kgamma (unknown origin)
pIC50: −log10 of the molar value.
Kindly supply the reported pIC50 values for the records listed here.

So what does the record say about pIC50 for "C[C@@H]1COCCN1c1cc(N2CCOC[C@@H]2C)nc2[nH]c(-c3ccccn3)nc12" ?
< 5.00

Quick one: pIC50 for "C[C@@H]1COCCN1c1cc(N2CCOC[C@@H]2C)nc2[nH]c(-c3cscn3)nc12" ?
< 5.00

---

Experimental Protocol: Solubility of compound at pH 6.8
Format: physicochemical
Assay Context: buffer
Outcome label depends on solubility relative to 200 µg/mL: at/above gives 1, below gives -1.

In plain terms: is recorded solubility at least 200 µg/mL for "C[C@@H]1COCCN1c1cc(N2CCOC[C@@H]2C)nc2[nH]c(-c3cc[nH]n3)nc12" ?
-1

Kindly determine if solubility recorded for "C[C@@H]1COCCN1c1cc(N2CCOC[C@@H]2C)nc2[nH]c(-c3cscn3)nc12" is above or exactly 200 µg/mL.
-1

API: above_or_equal(metric=solubility, cutoff=200 µg/mL) for item "C[C@@H]1COCCN1c1cc(N2CCOC[C@@H]2C)nc2[nH]c(-c3nccs3)nc12"
1

Does "C[C@@H]1COCCN1c1cc(N2C3CCC2COC3)nc2[nH]c(-c3ccccn3)nc12" have a reported solubility of at least 200 µg/mL?
-1

Quick check, solubility >= 200 µg/mL? "C[C@@H]1COCCN1c1cc(N2CCOC[C@@H]2C)nc2[nH]c(-c3ccccn3)nc12"
-1

Item "C[C@@H]1COCCN1c1cc(N2CCOC[C@@H]2C)nc2[nH]c(-c3cc(O)ccc3F)nc12" with solubility of 200 µg/mL or above?
-1

---

Assignment: determine reported Tmax for the given molecules.
Experimental Protocol: Tmax in C57BL/6 mouse at 1 mg/kg, iv and 3 mg/kg, ip measured upto 24 hrs by HPLC-MS analysis
Format: ADME, organism-based
Assay Context: in vivo
Express it in min; write the number only.

Need Tmax of "C[C@@H]1COCCN1c1cc(N2CCOC[C@@H]2C)nc2[nH]c(-c3cscn3)nc12" , thanks.
90

Which Tmax reading was recorded for the molecule "C[C@@H]1COCCN1c1cc(N2CCOC[C@@H]2C)nc2[nH]c(-c3ccccn3)nc12" ?
24

---

Experimental Protocol: Drug concentration in C57BL/6 mouse brain at 1 mg/kg, po measured after 24 hrs
Assay type: ADME, organism-based
Assay Context: read-out: Ct
Test Readout: concentration at 24 h (nM)
Field: numeric (nM). Do not append units.

Quick one: concentration at 24 h of "C[C@@H]1COCCN1c1cc(N2CCOC[C@@H]2C)nc2[nH]c(-c3cscn3)nc12" ?
7

---

Experimental Protocol: Metabolic stability in dog liver microsomes assessed as intrinsic clearance at 1 uM incubated for 30 mins in presence of NADPH by LC-MS/MS analysis
Assay type: ADME, Canis lupus familiaris, Microsome
Assay Context: read-out: CLH
Test Readout: microsomal CLint at 1 µM (µL/min/mg)
Answer with a number only, understood to be in µL/min/mg.

Consider the compound shown here: "C[C@@H]1COCCN1c1cc(N2CCOC[C@@H]2C)nc2[nH]c(-c3cscn3)nc12" What is its recorded microsomal CLint at 1 µM?
10

Name the reported microsomal CLint at 1 µM value associated with the compound "C[C@@H]1COCCN1c1cc(N2CCOC[C@@H]2C)nc2[nH]c(-c3ccccn3)nc12"
19

I'd like to know its microsomal CLint at 1 µM. The compound in question is "C[C@@H]1COCCN1c1nc(N2CCOC[C@@H]2C)nc2sc(-c3cc[nH]n3)nc12"
26

Value source: ChEMBL document CHEMBL5331134
